Measured pIC50, listed per entry.
Biological target: PI3-kinase p110-alpha/p85-alpha (Homo sapiens)
Sequence (P42336 whole entry, one chain of several): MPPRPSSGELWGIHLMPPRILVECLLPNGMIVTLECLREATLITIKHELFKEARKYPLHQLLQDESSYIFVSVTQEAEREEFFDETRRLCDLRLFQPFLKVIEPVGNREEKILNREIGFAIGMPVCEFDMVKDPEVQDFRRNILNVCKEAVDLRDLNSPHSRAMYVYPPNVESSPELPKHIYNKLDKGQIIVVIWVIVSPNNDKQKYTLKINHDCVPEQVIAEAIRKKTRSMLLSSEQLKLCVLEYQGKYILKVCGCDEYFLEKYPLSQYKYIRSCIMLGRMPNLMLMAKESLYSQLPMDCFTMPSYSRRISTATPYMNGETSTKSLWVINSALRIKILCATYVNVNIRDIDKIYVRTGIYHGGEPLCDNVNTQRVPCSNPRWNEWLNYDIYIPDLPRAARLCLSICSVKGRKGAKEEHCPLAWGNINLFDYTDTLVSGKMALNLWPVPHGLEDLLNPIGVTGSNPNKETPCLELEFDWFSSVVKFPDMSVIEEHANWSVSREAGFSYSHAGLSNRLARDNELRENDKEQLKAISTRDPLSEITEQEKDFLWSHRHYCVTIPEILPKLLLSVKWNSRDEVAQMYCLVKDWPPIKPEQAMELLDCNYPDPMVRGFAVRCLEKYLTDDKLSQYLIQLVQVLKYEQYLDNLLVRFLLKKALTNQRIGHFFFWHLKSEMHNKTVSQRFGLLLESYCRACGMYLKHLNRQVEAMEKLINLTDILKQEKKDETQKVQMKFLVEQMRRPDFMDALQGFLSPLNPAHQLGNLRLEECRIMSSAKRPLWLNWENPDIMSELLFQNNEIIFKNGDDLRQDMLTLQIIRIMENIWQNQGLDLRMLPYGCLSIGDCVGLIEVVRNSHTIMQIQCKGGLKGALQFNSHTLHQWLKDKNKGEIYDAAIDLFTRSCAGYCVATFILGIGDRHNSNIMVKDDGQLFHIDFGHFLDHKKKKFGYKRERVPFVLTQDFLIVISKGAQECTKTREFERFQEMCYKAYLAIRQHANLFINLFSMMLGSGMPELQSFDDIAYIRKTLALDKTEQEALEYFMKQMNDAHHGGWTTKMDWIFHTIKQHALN
Experiment: Inhibition of N-terminal His6-tagged recombinant full-length human p110alpha/untagged recombinant full length human p85alpha expressed in baculovirus infected Sf21 cells using phosphatidylinositol as substrate in presence of gamma-32P-ATP after 5 mins by thin layer chromatographic method
pIC50: −log10 of the molar value.

Below are worked cases with known answers.
>>> result("Cc1ccccc1-n1c(Cn2nc(-c3ccc(F)cc3)c3c(N)ncnc32)cc2cccc(C)c2c1=O")
"< 5.00"
>>> result("Cc1ccccc1-n1c(Cn2nc(-c3ccc4nc(N)ncc4c3)c3c(N)ncnc32)cc2cccc(C)c2c1=O")
"> 4.00"
>>> result("Cc1ccccc1-n1c(Cn2nc(-c3ccc(O)c(F)c3)c3c(N)ncnc32)cc2cccc(C)c2c1=O")
"< 5.00"
>>> result("Cc1ccccc1-n1c(Cn2nc(C#N)c3c(N)ncnc32)cc2cccc(C)c2c1=O")
"< 5.00"
>>> result("Cc1cccc2cc(Cn3nc(-c4ccc5oc(N)nc5c4)c4c(N)ncnc43)n(C3CC3)c(=O)c12")
"> 4.00"
>>> result("COc1cc(-c2nn(Cc3cc4cccc(C)c4c(=O)n3-c3ccccc3F)c3ncnc(N)c23)ccc1Cl")
"< 5.00"
>>> result("Cc1cccc2cc(Cn3nc(-c4cc(O)cc(F)c4)c4c(N)ncnc43)n(-c3ccccc3O)c(=O)c12")
"> 5.00"
>>> result("Cc1cccc2cc(Cn3nc(-c4cccc(O)c4)c4c(N)ncnc43)n(-c3ccccc3O)c(=O)c12")
"< 5.00"

Could you now consider this next compound?
**Q:** Need pIC50 of Cc1cccc2cc(Cn3nc(C#CCO)c4c(N)ncnc43)n(-c3ccccc3F)c(=O)c12 , thanks.
**A:** < 5.00

---

Molecular target: PI3K p110 beta/p85 alpha (Homo sapiens)
Assay: Inhibition of N-terminal His6-tagged recombinant full-length human p110beta/untagged recombinant full length p85alpha expressed in baculovirus infected Sf21 cells using phosphatidylinositol as substrate in presence of gamma-32P-ATP after 5 mins by thin layer chromatographic method
attribute measured: IC50

Below are worked cases with known answers.
>>> result("Cc1ccccc1-n1c(Cn2nc(CCC(N)=O)c3c(N)ncnc32)cc2cccc(C)c2c1=O")
"> 10 µM"
>>> result("CC(=O)Nc1nc2ccc(-c3nn(Cc4cc5cccc(C)c5c(=O)n4-c4cccc(F)c4)c4ncnc(N)c34)cc2s1")
"< 10 µM"
>>> result("Cc1cccc2cc(Cn3nc(-c4ccc(F)c(O)c4)c4c(N)ncnc43)n(-c3ccccc3F)c(=O)c12")
"> 10 µM"
>>> result("Cc1ccccc1-n1c(Cn2nc(-c3cn[nH]c3)c3c(N)ncnc32)cc2cccc(C)c2c1=O")
"< 10 µM"
>>> result("Cc1cccc2cc(Cn3nc(-c4cn[nH]c4)c4c(N)ncnc43)n(-c3ccccc3C(C)C)c(=O)c12")
"< 1 µM"

**Q:** Need IC50 of Cc1cccc2cc(Cn3nc(I)c4c(N)ncnc43)n(C3CC3)c(=O)c12 , thanks.
**A:** < 10 µM

**Q:** Need IC50 of Cc1ccccc1-n1c(Cn2nc(C#C[C@@H](C)O)c3c(N)ncnc32)cc2cccc(F)c2c1=O , thanks.
**A:** > 10 µM

**Q:** Need IC50 of COc1cc(-c2nn(Cc3cc4cccc(C)c4c(=O)n3-c3ccccc3F)c3ncnc(N)c23)ccc1Cl , thanks.
**A:** > 10 µM

**Q:** Need IC50 of Cc1ccccc1-n1c(Cn2nc(-c3ccc(Cl)c(O)c3)c3c(N)ncnc32)cc2cccc(C)c2c1=O , thanks.
**A:** < 10 µM

---

Measured IC50, listed per entry.
Biological target: PI3K p110 beta/p85 alpha (Homo sapiens)
Test: Inhibition of N-terminal His6-tagged recombinant full-length human p110beta/untagged recombinant full length p85alpha expressed in baculovirus infected Sf21 cells using phosphatidylinositol as substrate in presence of gamma-32P-ATP after 5 mins by thin layer chromatographic method

Below are worked cases with known answers.
>>> result("COc1cccc(-c2nn(Cc3cc4cccc(C)c4c(=O)n3-c3ccccc3C)c3ncnc(N)c23)c1")
"< 10 µM"
>>> result("Cc1ccccc1-n1c(Cn2nc(/C=C/C(=O)N3CCOCC3)c3c(N)ncnc32)cc2cccc(C)c2c1=O")
"> 10 µM"
>>> result("Cc1cccc2cc(Cn3nc(C#C[C@@H](C)O)c4c(N)ncnc43)n(-c3ccccc3F)c(=O)c12")
"> 10 µM"
>>> result("Cc1ccccc1-n1c(Cn2nc(-c3ccc4nc(N)ncc4c3)c3c(N)ncnc32)cc2cccc(C)c2c1=O")
"< 1 µM"
>>> result("CC(=O)Nc1nc2ccc(-c3nn(Cc4cc5cccc(Cl)c5c(=O)n4C4CC4)c4ncnc(N)c34)cc2s1")
"< 0.1 µM"
>>> result("Cc1cccc2cc(Cn3nc(I)c4c(N)ncnc43)n(-c3ccccc3C(C)C)c(=O)c12")
"< 10 µM"

**Q:** Need IC50 of Cc1cccc2cc(Cn3nc(-c4ccc(O)c(F)c4)c4c(N)ncnc43)n(-c3ccccc3F)c(=O)c12 , thanks.
**A:** > 10 µM

**Q:** Need IC50 of CCc1ccccc1-n1c(Cn2nc(-c3cc(O)cc(F)c3)c3c(N)ncnc32)cc2cccc(C)c2c1=O , thanks.
**A:** < 1 µM

**Q:** Need IC50 of Cc1ccccc1-n1c(Cn2nc(-c3ccc4nc(N)ccc4c3)c3c(N)ncnc32)cc2cccc(C)c2c1=O , thanks.
**A:** < 10 µM

---

Molecular target: PI3K p110 beta/p85 alpha (Homo sapiens, UniProt P42338)
Sequence (P27986 whole entry): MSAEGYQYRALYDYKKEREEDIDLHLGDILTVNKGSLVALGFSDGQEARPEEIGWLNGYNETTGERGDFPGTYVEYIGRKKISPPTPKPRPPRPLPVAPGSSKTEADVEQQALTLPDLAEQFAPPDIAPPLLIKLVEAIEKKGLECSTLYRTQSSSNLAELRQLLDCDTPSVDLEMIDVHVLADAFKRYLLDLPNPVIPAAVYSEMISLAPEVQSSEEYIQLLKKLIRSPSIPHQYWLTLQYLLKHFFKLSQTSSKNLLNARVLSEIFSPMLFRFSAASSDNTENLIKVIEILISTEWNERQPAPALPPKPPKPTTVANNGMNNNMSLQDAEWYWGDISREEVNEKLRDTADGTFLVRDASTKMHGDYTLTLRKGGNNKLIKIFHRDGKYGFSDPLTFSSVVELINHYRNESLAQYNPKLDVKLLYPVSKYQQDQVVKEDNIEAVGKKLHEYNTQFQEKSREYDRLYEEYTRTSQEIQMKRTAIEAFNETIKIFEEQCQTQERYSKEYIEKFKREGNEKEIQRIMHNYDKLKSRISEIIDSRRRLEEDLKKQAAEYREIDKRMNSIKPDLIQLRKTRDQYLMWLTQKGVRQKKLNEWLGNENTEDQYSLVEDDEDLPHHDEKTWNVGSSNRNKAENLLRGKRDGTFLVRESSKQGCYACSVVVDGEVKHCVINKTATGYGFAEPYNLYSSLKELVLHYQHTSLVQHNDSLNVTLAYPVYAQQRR
Sequence (P42338 whole entry): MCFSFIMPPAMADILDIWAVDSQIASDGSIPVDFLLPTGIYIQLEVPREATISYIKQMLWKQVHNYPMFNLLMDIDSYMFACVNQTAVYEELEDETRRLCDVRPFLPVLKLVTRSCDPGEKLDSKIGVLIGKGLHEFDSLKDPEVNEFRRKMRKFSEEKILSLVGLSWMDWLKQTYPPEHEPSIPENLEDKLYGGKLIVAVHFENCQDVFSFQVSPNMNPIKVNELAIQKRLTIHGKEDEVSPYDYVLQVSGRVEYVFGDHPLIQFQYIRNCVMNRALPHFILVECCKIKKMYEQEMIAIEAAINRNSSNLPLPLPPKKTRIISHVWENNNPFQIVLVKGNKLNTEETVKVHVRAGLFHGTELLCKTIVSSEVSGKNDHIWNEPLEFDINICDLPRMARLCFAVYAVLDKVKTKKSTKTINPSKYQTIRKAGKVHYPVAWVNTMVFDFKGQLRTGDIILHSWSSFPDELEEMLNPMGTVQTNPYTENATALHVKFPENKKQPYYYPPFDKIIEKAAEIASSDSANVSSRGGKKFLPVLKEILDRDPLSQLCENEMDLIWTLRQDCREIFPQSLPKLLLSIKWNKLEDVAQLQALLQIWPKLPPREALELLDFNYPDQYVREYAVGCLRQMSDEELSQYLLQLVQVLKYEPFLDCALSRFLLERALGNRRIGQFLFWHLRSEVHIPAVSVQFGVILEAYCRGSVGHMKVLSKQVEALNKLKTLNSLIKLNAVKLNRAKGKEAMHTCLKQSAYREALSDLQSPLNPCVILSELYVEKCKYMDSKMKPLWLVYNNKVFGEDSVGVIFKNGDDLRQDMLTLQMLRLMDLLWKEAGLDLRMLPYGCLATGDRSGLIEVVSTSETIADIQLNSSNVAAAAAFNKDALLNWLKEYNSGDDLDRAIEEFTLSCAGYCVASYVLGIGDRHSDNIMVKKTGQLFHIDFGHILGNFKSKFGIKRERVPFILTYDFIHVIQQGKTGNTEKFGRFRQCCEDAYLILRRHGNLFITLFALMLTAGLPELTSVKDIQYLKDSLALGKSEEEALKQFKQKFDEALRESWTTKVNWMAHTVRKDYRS
Assay: Inhibition of N-terminal His6-tagged recombinant full-length human p110beta/untagged recombinant full length p85alpha expressed in baculovirus infected Sf21 cells using phosphatidylinositol as substrate in presence of gamma-32P-ATP after 5 mins by thin layer chromatographic method
attribute measured: IC50

>>> result("CC(=O)Nc1nc2ccc(-c3nn(Cc4cc5cccc(C)c5c(=O)n4-c4ccccc4)c4ncnc(N)c34)cc2s1")
"< 10 µM"
>>> result("Cc1cccc2cc(Cn3nc(I)c4c(N)ncnc43)n(C(C)C)c(=O)c12")
"> 10 µM"
>>> result("Cc1ccccc1-n1c(Cn2nc(-c3ccc(F)c(O)c3)c3c(N)ncnc32)cc2cccc(F)c2c1=O")
"> 10 µM"

Could you now consider this next compound?
**Q:** Need IC50 of Cc1ccccc1-n1c(Cn2nc(CN3CCOCC3)c3c(N)ncnc32)cc2cccc(C)c2c1=O , thanks.
**A:** > 10 µM

---

Target: PI3-kinase p110-delta/p85-alpha (Homo sapiens, UniProt O00329)
Sequence (O00329 whole entry, one chain of several): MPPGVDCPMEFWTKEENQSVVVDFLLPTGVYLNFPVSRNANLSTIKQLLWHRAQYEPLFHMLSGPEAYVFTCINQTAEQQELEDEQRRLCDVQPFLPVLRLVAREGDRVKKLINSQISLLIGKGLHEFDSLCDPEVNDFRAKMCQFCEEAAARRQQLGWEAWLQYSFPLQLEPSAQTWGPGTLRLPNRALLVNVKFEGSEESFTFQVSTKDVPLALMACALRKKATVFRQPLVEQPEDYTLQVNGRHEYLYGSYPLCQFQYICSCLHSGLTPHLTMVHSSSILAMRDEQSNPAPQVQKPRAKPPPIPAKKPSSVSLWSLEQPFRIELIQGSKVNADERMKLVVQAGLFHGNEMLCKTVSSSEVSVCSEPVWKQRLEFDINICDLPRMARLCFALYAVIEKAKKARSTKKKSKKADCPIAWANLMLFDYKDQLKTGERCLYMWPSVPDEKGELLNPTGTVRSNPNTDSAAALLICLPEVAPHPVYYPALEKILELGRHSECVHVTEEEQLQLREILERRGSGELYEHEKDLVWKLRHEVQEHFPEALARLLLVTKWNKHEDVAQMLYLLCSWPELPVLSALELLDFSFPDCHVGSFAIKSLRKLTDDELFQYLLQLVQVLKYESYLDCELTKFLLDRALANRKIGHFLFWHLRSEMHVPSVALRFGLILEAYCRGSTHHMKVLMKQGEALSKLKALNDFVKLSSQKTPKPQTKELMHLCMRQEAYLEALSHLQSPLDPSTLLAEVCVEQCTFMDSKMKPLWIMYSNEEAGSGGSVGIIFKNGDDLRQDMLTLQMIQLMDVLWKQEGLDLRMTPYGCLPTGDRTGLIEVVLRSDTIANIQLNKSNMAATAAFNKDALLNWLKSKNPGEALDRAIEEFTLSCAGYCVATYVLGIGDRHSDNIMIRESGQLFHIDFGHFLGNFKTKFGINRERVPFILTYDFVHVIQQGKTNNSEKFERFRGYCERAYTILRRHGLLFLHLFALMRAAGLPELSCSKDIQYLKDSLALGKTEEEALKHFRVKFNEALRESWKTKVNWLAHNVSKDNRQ
Test: Inhibition of N-terminal His6-tagged recombinant full-length human p110delta/untagged recombinant full length p85alpha expressed in baculovirus infected Sf21 cells using phosphatidylinositol as substrate in presence of gamma-32P-ATP after 5 mins by thin layer chromatographic method
pIC50: −log10 of the molar value.
attribute measured: pIC50

Below are worked cases with known answers.
>>> result("Cc1cccc2cc([C@H](C)Nc3ncnc4[nH]cc(Br)c34)n(-c3ccccc3)c(=O)c12")
"> 7.00"
>>> result("Nc1ncnc2c1c(-c1cn[nH]c1)nn2Cc1cc2cccc(F)c2c(=O)n1-c1ccccc1F")
"> 6.00"
>>> result("Cc1cccc2cc([C@H](C)Nc3ncnc4[nH]cc(C(N)=O)c34)n(-c3ccccc3)c(=O)c12")
"> 7.00"
>>> result("Cc1ccccc1-n1c(Cn2nc(I)c3c(N)ncnc32)cc2cccc(F)c2c1=O")
"> 6.00"
>>> result("Cc1cccc2cc(Cn3nc(-c4cn[nH]c4)c4c(N)ncnc43)n(-c3cccc(F)c3)c(=O)c12")
"> 7.00"

**Q:** Need pIC50 of CCc1ccccc1-n1c(Cn2nc(-c3cn[nH]c3)c3c(N)ncnc32)cc2cccc(C)c2c1=O , thanks.
**A:** > 7.00

**Q:** Need pIC50 of Cc1ccccc1-n1c(Cn2nc(-c3ccc(CN)cc3)c3c(N)ncnc32)cc2cccc(C)c2c1=O , thanks.
**A:** > 5.00

**Q:** Need pIC50 of CC(C)n1c(Cn2nc(-c3cccc(O)c3)c3c(N)ncnc32)cc2ccccc2c1=O , thanks.
**A:** > 7.00

**Q:** Need pIC50 of CC(C)n1c(Cn2nc(I)c3c(N)ncnc32)cc2cccc(F)c2c1=O , thanks.
**A:** > 5.00

**Q:** Need pIC50 of Cc1ccccc1-n1c(Cn2nc(-c3cccc(O)c3)c3c(N)ncnc32)cc2ccccc2c1=O , thanks.
**A:** > 7.00

**Q:** Need pIC50 of Cc1cccc2cc(Cn3nc(I)c4c(N)ncnc43)n(C)c(=O)c12 , thanks.
**A:** > 6.00

**Q:** Need pIC50 of Cc1cccc2cc(Cn3nc(-c4cc(O)cc(F)c4)c4c(N)ncnc43)n(-c3ccccc3C(C)C)c(=O)c12 , thanks.
**A:** > 7.00

---

Molecular target: PI3-kinase p110-delta/p85-alpha (Homo sapiens, UniProt O00329)
Test: Inhibition of N-terminal His6-tagged recombinant full-length human p110delta/untagged recombinant full length p85alpha expressed in baculovirus infected Sf21 cells using phosphatidylinositol as substrate in presence of gamma-32P-ATP after 5 mins by thin layer chromatographic method
pIC50: −log10 of the molar value.
attribute measured: pIC50

Below are worked cases with known answers.
>>> result("Cc1cccc2cc(Cn3nc(-c4ccc(O)c(F)c4)c4c(N)ncnc43)n(-c3ccccc3F)c(=O)c12")
"> 6.00"
>>> result("Cc1cccc2cc(Cn3nc(C#C[C@@H](C)O)c4c(N)ncnc43)n(-c3ccccc3F)c(=O)c12")
"> 7.00"
>>> result("CCC(Nc1ncnc2[nH]cnc12)c1cc2ccccc2c(=O)n1-c1ccccc1 (stereo unspecified)")
"> 7.00"
>>> result("Cc1ccccc1-n1c(Cn2nc(-c3ccc4nc(N)[nH]c4c3)c3c(N)ncnc32)cc2cccc(C)c2c1=O")
"> 7.00"
>>> result("CCc1nn(Cc2cc3cccc(C)c3c(=O)n2-c2ccccc2C)c2ncnc(N)c12")
"> 7.00"

**Q:** Need pIC50 of Cc1cccc2cc([C@H](C)Nc3nc(N)ncc3Cl)n(C3CC3)c(=O)c12 , thanks.
**A:** > 7.00

**Q:** Need pIC50 of CCN(Cc1cc2cccc(C)c2c(=O)n1-c1ccccc1C)c1ncnc2[nH]cnc12 , thanks.
**A:** > 5.00

**Q:** Need pIC50 of Cc1cccc2cc([C@H](C)Nc3ncnc4ccccc34)n(-c3ccccc3)c(=O)c12 , thanks.
**A:** > 7.00

**Q:** Need pIC50 of Cc1cccc2cc(Cn3nc(-c4cccc(O)c4)c4c(N)ncnc43)n(C(C)C)c(=O)c12 , thanks.
**A:** > 7.00

**Q:** Need pIC50 of CC(=O)Nc1nc2ccc(-c3nn(Cc4cc5cccc(C)c5c(=O)n4C4CC4)c4ncnc(N)c34)cc2s1 , thanks.
**A:** > 7.00

**Q:** Need pIC50 of Cc1ccccc1-n1c(Cn2nc(-c3ccn[nH]3)c3c(N)ncnc32)cc2cccc(C)c2c1=O , thanks.
**A:** > 6.00
